# Measurement target: human factor Xa (FXa) (Homo sapiens)
# Sequence (P00742 235-488 limits assumed): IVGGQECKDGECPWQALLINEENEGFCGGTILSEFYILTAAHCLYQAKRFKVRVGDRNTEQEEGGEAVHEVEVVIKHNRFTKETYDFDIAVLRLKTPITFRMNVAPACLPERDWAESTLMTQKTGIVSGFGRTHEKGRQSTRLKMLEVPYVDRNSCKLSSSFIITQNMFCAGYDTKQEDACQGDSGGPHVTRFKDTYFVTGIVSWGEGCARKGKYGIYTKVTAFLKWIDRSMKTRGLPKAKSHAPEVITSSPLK
# Sequence (P00742 41-179 partner limits assumed): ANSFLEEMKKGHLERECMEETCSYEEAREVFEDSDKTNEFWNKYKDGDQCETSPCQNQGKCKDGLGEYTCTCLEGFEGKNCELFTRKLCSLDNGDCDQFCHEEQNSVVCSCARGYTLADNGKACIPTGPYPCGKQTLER
Property measured: IC50 (nM)
Report the value in nM with no unit label.

Consider the molecule COc1ccc(-n2nc(C(N)=O)c3c2C(=O)N(c2ccc(N4CCOC4=N)cc2)CC3)cc1 [Example 1, methanesulphonate] and give its measured IC50. 0.8
